Origin of measurements: patent US20230303681A1

Assay system: T1, human TMEM106B (human, UniProt Q9NUM4 2-274)
T1 construct: Full-length, on transiently transfected HEK293 cells, or natively expressed on HeLa, U251 and A549 cells; also called huTMEM106B; huTMEM
Protocol summary: FACS, HEK293 transfectants;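 further: flow cytometry binding of hybridoma supernatants to HEK293 cells transiently expressing human, cyno or mouse TMEM106B, read as anti-mouse-APC median fluorescence, live cells only, 30 min on ice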
Endpoint label: fold-change over parental HEK293 (fold)

Binder	Endpoint label	Quantity unit	Numeric result
anti-TMEM106B antibody TM-19 (antibody, V domains shown) VH: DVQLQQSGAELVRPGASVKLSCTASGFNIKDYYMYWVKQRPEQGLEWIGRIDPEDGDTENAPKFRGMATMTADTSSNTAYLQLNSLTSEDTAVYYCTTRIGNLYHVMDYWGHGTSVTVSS VL: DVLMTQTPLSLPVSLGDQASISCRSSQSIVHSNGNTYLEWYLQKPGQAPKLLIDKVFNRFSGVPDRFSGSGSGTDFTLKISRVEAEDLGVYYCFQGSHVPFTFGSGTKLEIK	fold-change over parental HEK293	fold	13.8
anti-TMEM106B antibody TM-33 (antibody, V domains shown, mouse IgG from hybridoma) VH: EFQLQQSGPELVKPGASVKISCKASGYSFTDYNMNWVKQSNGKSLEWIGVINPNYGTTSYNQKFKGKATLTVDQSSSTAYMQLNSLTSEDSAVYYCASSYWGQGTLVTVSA VL: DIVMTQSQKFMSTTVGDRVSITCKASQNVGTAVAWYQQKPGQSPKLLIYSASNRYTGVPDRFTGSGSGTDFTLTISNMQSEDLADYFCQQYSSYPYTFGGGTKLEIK	fold-change over parental HEK293	fold	10.2
anti-TMEM106B antibody TM-14 (antibody, V domains shown, mouse IgG from hybridoma) VH: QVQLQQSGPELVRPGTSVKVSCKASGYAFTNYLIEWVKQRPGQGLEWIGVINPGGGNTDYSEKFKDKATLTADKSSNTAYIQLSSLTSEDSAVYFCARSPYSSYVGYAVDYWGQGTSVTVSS VL: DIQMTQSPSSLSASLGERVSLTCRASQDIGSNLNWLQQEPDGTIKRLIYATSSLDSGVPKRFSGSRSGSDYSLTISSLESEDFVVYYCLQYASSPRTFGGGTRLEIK	fold-change over parental HEK293	fold	3.96
anti-TMEM106B antibody TM-2 (antibody, V domains shown) VH: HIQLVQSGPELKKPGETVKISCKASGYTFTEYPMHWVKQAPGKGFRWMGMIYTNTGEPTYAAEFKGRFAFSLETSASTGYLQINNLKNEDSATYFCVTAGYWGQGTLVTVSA VL: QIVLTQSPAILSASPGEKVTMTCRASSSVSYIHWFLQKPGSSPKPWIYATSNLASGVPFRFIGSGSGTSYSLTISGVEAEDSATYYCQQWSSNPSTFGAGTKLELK	fold-change over parental HEK293	fold	9.84
anti-TMEM106B antibody TM-25 (antibody, V domains shown) VH: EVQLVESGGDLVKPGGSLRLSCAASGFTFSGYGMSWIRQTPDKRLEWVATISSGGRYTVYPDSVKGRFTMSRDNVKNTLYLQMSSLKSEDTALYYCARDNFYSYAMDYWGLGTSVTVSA VL: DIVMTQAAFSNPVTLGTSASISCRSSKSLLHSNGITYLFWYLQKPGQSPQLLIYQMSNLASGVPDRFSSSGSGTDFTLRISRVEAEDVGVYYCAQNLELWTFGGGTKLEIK	fold-change over parental HEK293	fold	13
anti-TMEM106B antibody TM-35 (antibody, V domains shown) VH: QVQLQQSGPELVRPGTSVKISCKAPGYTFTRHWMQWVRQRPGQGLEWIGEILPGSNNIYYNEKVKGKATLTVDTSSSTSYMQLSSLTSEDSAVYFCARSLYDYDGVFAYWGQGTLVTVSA VL: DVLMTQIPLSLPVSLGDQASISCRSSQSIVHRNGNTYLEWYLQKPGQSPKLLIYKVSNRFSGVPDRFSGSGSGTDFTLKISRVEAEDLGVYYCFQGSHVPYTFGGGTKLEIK	fold-change over parental HEK293	fold	11.5
anti-TMEM106B antibody TM-26 (antibody, V domains shown) VH: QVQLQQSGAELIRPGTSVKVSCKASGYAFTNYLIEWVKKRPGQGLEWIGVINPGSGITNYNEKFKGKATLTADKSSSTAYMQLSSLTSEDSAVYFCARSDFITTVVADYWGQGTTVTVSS VL: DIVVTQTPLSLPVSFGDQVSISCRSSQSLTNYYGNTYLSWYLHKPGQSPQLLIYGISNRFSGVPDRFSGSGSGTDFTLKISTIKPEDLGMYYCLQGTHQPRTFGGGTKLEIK	fold-change over parental HEK293	fold	11.8
anti-TMEM106B antibody TM-49 (antibody, V domains shown, mouse IgG from hybridoma) VH: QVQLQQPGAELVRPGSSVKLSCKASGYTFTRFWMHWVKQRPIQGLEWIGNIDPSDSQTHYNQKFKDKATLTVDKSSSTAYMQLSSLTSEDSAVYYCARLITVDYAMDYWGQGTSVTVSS VL: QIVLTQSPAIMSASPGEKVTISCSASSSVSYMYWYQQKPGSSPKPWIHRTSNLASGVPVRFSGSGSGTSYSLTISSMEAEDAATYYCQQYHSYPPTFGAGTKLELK	fold-change over parental HEK293	fold	15.6
anti-TMEM106B antibody TM-11 (antibody, V domains shown) VH: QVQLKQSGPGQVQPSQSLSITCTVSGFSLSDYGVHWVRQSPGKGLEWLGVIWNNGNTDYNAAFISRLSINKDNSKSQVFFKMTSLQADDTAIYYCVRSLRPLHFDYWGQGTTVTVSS VL: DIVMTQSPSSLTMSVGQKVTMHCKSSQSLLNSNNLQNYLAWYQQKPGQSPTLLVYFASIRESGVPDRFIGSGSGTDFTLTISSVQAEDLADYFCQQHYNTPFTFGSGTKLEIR	fold-change over parental HEK293	fold	9.96
anti-TMEM106B antibody TM-15 (antibody, V domains shown, mouse IgG from hybridoma) VH: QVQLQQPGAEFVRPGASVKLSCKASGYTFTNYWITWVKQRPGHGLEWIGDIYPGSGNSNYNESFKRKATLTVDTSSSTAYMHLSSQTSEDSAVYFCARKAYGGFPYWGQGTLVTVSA VL: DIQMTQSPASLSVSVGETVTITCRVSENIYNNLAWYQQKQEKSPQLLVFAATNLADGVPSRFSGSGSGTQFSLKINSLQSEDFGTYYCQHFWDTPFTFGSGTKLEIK	fold-change over parental HEK293	fold	31.4
anti-TMEM106B antibody TM-27 (antibody, V domains shown) VH: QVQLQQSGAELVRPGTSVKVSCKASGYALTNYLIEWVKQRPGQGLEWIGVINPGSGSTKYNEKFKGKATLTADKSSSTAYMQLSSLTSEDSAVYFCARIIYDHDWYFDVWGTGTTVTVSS VL: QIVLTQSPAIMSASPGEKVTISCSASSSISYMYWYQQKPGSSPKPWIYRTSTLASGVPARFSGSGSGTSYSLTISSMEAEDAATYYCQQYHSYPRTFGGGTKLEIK	fold-change over parental HEK293	fold	7.62
